Entries and their pIC50
molecular target: Programmed cell death protein 1/Programmed cell death 1 ligand 1 (Homo sapiens, UniProt Q9NZQ7); assay: Inhibition of europium-labeled PD-1/biotinylated PD-L1 interaction (unknown origin) preincubated for 15 mins with PD-L1 followed by PD-1 addition and measured after 90 mins by TR-FRET assay
Sequence (Q15116 whole entry): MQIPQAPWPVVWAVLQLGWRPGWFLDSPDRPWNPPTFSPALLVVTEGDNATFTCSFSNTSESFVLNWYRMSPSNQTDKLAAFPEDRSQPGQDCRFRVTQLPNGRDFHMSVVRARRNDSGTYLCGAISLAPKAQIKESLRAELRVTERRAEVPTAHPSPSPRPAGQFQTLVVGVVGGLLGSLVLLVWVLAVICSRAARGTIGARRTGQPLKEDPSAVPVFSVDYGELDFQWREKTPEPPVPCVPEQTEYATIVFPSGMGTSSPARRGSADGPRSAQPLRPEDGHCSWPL
Sequence (Q9NZQ7 whole entry): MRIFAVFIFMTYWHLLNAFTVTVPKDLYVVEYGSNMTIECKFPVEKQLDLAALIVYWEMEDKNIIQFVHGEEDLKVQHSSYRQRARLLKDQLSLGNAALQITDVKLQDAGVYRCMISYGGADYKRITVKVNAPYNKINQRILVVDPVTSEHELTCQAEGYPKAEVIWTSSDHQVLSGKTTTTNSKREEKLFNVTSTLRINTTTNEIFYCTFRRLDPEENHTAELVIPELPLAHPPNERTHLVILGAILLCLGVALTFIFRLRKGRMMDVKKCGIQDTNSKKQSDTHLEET
pIC50: −log10 of the molar value.
measure-name: pIC50

>>> recorded_value("N#Cc1c(-c2ccc3c(c2)OCCO3)cccc1N1C(=O)c2ccc(C(=O)NCCO)cc2C1=O")
5.93
>>> recorded_value("Cc1c(-c2ccccc2)cccc1N1C(=O)c2ccc(C(=O)N3CCN(C(C)C)CC3)cc2C1=O")
5.29
>>> recorded_value("Cc1c(-c2ccccc2)cccc1N1C(=O)c2ccc(CNCCO)cc2C1=O")
6.47
